assay_endpoint: melting point

Consider the reported melting point for these molecules:
* O=C(Cc1ccc(NC(=O)C(=O)O)cc1)N[C@@H](CC(=O)N1CC2CCC1CC2)Cc1ccccc1 | 79 to 80 °C
* O=C(Cc1ccc(NS(=O)(=O)C(F)(F)F)cc1)N[C@H](CC(=O)N1CC2CCC1CC2)Cc1ccccc1 | 78 to 80 °C

Let us move to another entry and its melting point.
Problem: Requested field: melting point. Item: CS(=O)(=O)N[C@H](CC(=O)N1CC2CCC1CC2)Cc1ccccc1
Result: 127 to 129 °C

###

assay_endpoint: melting point

The following compounds have reported results that may help.
- O=C(O)C(=O)Nc1ccc(C(=O)N[C@@H](CC(=O)N2CC3CCC2CC3)Cc2ccccc2)cc1: 200 to 201 °C
- O=C(Nc1ccncc1)[C@H](CC(=O)N1CC2CCC1CC2)Cc1ccccc1: 171 to 172 °C
- O=C(C[C@H](Cc1ccccc1)Nc1c(O)c(=O)c1=O)N1CC2CCC1CC2: 156 to 158 °C
- O=C(OC1CCCCC1)[C@H](CC(=O)N1CC2CCC1CC2)Cc1ccccc1 [Compound 14]: 92 to 95 °C
- O=C(O)[C@H](CCOc1ccccc1)CC(=O)N1CC2CCC1CC2: 115 to 117 °C
- O=C(O)[C@H](CC(=O)N1CC2CCC1CC2)Oc1ccccc1: 140 to 142 °C
- O=C(Oc1ccc(NS(=O)(=O)C(F)(F)F)cc1)[C@H](CC(=O)N1CC2CCC1CC2)Cc1ccccc1: 60 to 62 °C
- O=C(O)C(O)[C@H](CC(=O)N1CC2CCC1CC2)Cc1ccccc1 (some centres unmarked): 60 to 61 °C
- O=C(O)CC[C@H](CC(=O)N1CC2CCC1CC2)Cc1ccccc1: 79 to 81 °C
- O=C(Nc1ccc(NS(=O)(=O)C(F)(F)F)cc1)[C@H](CC(=O)N1CC2CCC1CC2)Cc1ccccc1: 136 to 138 °C

Would you mind listing melting point for each of the following compounds?
1. O=C(Oc1ccc(O)cc1)[C@H](CC(=O)N1CC2CCC1CC2)Cc1ccccc1 [Compound 18]
2. O=C(O)[C@H](CCN1CC2CCC1CC2)Cc1ccccc1 [Compound 47]
3. O=C(O)[C@@H](CCOc1ccccc1)CC(=O)N1CC2CCC1CC2
4. O=C(O)CC(=O)N[C@H](CC(=O)N1CC2CCC1CC2)Cc1ccccc1
5. O=C(Oc1ccccc1)[C@H](CC(=O)N1CC2CCC1CC2)Cc1ccccc1 [Compound 15]
6. O=C(C[C@H](Cc1ccccc1)NS(=O)(=O)C(F)(F)F)N1CC2CCC1CC2
7. O=C([O-])[C@H](CC(=O)N1CC2CCC1CC2)Cc1ccccc1.[Na+] [Compound 11]
8. O=C(C[C@@H](Cc1ccccc1)NS(=O)(=O)C(F)(F)F)N1CC2CCC1CC2

Result:
["61 to 64 °C", "171 to 174 °C", "117 to 119 °C", "149 to 151 °C", "112 to 113 °C", "155 to 158 °C", "> 250 °C", "128 to 130 °C"]

Return reported melting point values for all items listed beneath this line.
1. CCOc1cc(CC(=O)N[C@H](CC(=O)N2CC3CCC2CC3)Cc2ccccc2)ccc1C(=O)O
2. O=C(O)/C=C/[C@H](CC(=O)N1CC2CCC1CC2)Cc1ccccc1

Result:
100 to 103 °C
52 to 53 °C

###

Give measured melting point for each item. Keep answers brief.

• O=C(Nc1nccs1)[C@H](CC(=O)N1CC2CCC1CC2)Oc1ccccc1 = 60 to 65 °C
• O=C(O)C(=O)N[C@H](CC(=O)N1CC2CCC1CC2)Cc1ccccc1 = 156 to 159 °C
• O=C(Nc1nccs1)[C@H](CC(=O)N1CC2CCC1CC2)Cc1ccccc1 = 69 to 72 °C
• O=C(O)C(C[C@H](CC(=O)N1CC2CCC1CC2)Cc1ccccc1)C(=O)O = 78 to 80 °C

Could you report melting point for every entry in the following list?
1. CN(c1c(O)c(=O)c1=O)[C@H](CC(=O)N1CC2CCC1CC2)Cc1ccccc1
2. O=C(O)[C@H](CC(=O)N1CC2CCC1CC2)Cc1ccccc1
3. O=C(Nc1cc(F)c(O)c(F)c1)[C@H](CC(=O)N1CC2CCC1CC2)Cc1ccccc1
4. CS(=O)(=O)N[C@@H](CC(=O)N1CC2CCC1CC2)Cc1ccccc1
5. O=C(O)C(C[C@H](CC(=O)N1CC2CCC1CC2)CC1CCCCC1)C(=O)O
6. O=C(C[C@@H](C=NOS(=O)(=O)O)Cc1ccccc1)N1CC2CCC1CC2

Result:
["153 to 155 °C", "93 to 95 °C", "118 to 120 °C", "129 to 130 °C", "84 to 85 °C", "148 to 151 °C"]

Values were extracted from patent US6903111B2.
